The reported numbers originate from ChEMBL document CHEMBL4431371.

SUBJECT OF TEST: Cystic fibrosis transmembrane conductance regulator (Homo sapiens, UniProt P13569, F508DEL)
Sequence (P13569 as listed by the source): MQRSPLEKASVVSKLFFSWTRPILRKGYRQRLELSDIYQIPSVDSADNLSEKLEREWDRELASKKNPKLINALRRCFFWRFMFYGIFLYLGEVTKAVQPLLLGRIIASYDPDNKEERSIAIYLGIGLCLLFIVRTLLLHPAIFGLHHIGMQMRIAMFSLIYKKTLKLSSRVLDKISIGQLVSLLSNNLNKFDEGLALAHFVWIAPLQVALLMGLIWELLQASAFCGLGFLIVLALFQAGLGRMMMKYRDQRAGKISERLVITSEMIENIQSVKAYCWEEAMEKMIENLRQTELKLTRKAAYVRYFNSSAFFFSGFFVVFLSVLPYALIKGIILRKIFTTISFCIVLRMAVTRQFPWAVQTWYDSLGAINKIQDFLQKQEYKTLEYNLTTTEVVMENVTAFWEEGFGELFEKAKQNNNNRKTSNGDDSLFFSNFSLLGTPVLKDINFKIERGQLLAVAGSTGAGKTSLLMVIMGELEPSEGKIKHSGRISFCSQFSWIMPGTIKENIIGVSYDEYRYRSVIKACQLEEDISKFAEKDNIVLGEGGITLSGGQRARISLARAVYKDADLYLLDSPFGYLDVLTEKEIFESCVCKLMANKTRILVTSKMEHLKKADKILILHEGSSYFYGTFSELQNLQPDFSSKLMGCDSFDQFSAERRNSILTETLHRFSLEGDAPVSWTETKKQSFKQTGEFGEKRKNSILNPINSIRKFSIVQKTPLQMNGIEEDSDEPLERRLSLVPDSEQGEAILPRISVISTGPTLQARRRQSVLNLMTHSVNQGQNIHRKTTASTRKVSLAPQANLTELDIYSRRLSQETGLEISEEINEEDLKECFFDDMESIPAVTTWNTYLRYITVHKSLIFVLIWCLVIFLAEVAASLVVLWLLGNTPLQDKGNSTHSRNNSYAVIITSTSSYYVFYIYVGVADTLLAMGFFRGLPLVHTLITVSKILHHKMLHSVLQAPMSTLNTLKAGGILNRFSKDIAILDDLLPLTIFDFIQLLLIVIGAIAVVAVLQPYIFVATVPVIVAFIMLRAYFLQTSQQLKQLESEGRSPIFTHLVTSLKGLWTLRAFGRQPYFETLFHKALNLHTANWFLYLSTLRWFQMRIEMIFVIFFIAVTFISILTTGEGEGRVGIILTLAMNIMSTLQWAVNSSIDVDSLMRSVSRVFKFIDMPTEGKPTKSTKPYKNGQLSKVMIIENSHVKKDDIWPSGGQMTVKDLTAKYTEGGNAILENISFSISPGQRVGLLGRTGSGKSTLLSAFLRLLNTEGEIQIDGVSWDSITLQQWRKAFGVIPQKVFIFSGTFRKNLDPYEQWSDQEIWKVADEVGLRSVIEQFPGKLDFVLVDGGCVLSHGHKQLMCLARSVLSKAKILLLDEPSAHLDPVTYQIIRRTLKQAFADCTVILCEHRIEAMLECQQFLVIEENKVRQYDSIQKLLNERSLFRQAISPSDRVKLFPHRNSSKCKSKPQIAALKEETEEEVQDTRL
EXPERIMENT: Corrector activity at CFTR F508del mutant (unknown origin) expressed in human CFBE41o cells incubated for 18 to 24 hrs by CSE-HRP assay
Format: cell-based
With a cut-off of 1000 nM, any EC50 strictly below it is called criterion met; any EC50 meeting it or above is called criterion not met.

>>> print(df.to_string())
                                   molecule  qualitative_label
0  O=C(O)c1ccc([C@H]2C[C@@H](NC(=O)C3(c4ccc5c(c4)OC(F)(F)O5)CC3)CCO2)cc1 (racemic)  criterion not met
1  O=C(O)c1cccc([C@@H]2C[C@H](NC(=O)C3(c4ccc5c(c4)OC(F)(F)O5)CC3)C[C@H](c3ccccc3)O2)c1  criterion not met
2  CCOC(=O)c1cc(C)cc([C@H]2C[C@@H](NC(=O)C3(c4ccc5c(c4)OC(F)(F)O5)CC3)C[C@@H](c3ccccc3)O2)c1 (racemic)  criterion not met
3  O=C(O)c1cccc([C@H]2C[C@@H](NC(=O)C3(c4ccc5c(c4)OC(F)(F)O5)CC3)C[C@@H](c3ccccc3)O2)c1      criterion met
4  O=C(O)c1cccc([C@H]2C[C@@H](NC(=O)C3(c4ccc5c(c4)OC(F)(F)O5)CC3)CCO2)c1 (racemic)      criterion met
5  O=C(O)c1ccc([C@H]2C[C@@H](NC(=O)C3(c4ccc5c(c4)OC(F)(F)O5)CC3)C[C@@H](c3ccccc3)O2)cc1      criterion met
